- experimental-target: Melanin-concentrating hormone receptor 1 (Homo sapiens) (UniProt Q99705)
- assay-name: MCH receptor 1 blockade in cells – cell-based, fluorescence, dose response, set 3, selectivity assay for GPR7 antagonist project, late-stage follow-up (AID 540371)
- condition-info: MCHR1-expressing cells, run 2
Activity calls are given as the source filed them. The rule behind the calls is not given here.
observed-property: IC50

CCc1ccc(Oc2c(Cl)cnn(Cc3cccc4ccccc34)c2=O)cc1 ... 1720 nM
COc1ccc(Oc2c(C#N)cnn(Cc3cccc4ccccc34)c2=O)cc1 ... 2250 nM
COc1ccc(Oc2c(Cl)cnn(Cc3ccccc3-c3ccccc3)c2=O)cc1 ... 2240 nM
COc1ccc(Oc2c(Cl)c(C#N)nn(Cc3ccccc3C)c2=O)cc1 ... 2330 nM
COc1ccc(Oc2c(Cl)cnn(Cc3ccccc3)c2=O)cc1 ... inactive
COc1ccc(Oc2c(Cl)cnn(Cc3c(C)ccc4ccccc34)c2=O)cc1 ... 815 nM
CCOc1ccc(Oc2c(Cl)cnn(C3c4ccccc4-c4ccccc43)c2=O)cc1 ... > 20000 nM (inactive)
CCOc1ccc(Oc2c(Cl)c(Br)nn(Cc3cccc4ccccc34)c2=O)cc1 ... 6020 nM
COc1ccc(Oc2c(Cl)cnn(Cc3cc(C)cc(C)c3)c2=O)cc1 ... inactive

Lab note: next compound to report on.
Exercise: Which IC50 is reported with Melanin-concentrating hormone receptor 1 (Homo sapiens) (UniProt Q99705) for this entry: CCCOc1ccc(Oc2c(Cl)cnn(C3c4ccccc4-c4ccccc43)c2=O)cc1 ?
Key: > 20000 nM (inactive)

* * *

- experimental-target: Melanin-concentrating hormone receptor 1 (Homo sapiens) (UniProt Q99705)
- assay-name: MCH receptor 1 blockade in cells – cell-based, fluorescence, dose response, set 3, selectivity assay for GPR7 antagonist project, late-stage follow-up (AID 540371)
- condition-info: MCHR1-expressing cells, run 2
The source made the active and inactive calls. How the calls were made is not given here.
Just give me one of these, please: Y (active), N (inactive)

Exercise: Each molecule tested received a call. Report the one for COc1ccc(Oc2c(Br)cnn(Cc3cccc4ccccc34)c2=O)cc1 .
Key: Y

Exercise: State the result this test recorded for COc1ccc(Oc2c(Cl)cnn(Cc3cccc4ccccc34)c2=O)cc1 .
Key: Y

Exercise: Please state the recorded outcome for this molecule: COc1ccc(Oc2c(Cl)cnn(Cc3ccc4ccccc4c3)c2=O)cc1
Key: N

Exercise: Just curious, what result did CCOC(=O)C(c1ccccc1)n1ncc(Cl)c(Oc2ccc(OC)cc2)c1=O (stereo unspecified) get here?
Key: N

Exercise: Any idea what this test logged for COc1ccc(Oc2c(Cl)cnn(Cc3c(F)cccc3F)c2=O)cc1 ?
Key: N

Exercise: Please let me know the test result on file for COc1ccc(Nc2c(Cl)cnn(Cc3cccc4ccccc34)c2=O)cc1 .
Key: N

Exercise: // outcome(item) with item = O=c1c(Oc2ccc3c(c2)CCO3)c(Cl)cnn1Cc1cccc2ccccc12
Key: N

Exercise: What did this assay record as the result for COc1ccc(Oc2c(Cl)cnn(C(C(=O)c3ccccc3)c3ccccc3)c2=O)cc1 (stereo unspecified) ?
Key: N

Exercise: Would you mind telling me which call this test gave CCCOc1ccc(Oc2c(Cl)cnn(Cc3cccc4ccccc34)c2=O)cc1 ?
Key: N

Exercise: Per the records of this test, what outcome belongs to COc1ccc(Oc2c(Cl)cnn(Cc3ccccc3C)c2=O)cc1 ?
Key: Y

Exercise: What classification did COc1ccc(Oc2c(Cl)cnn(Cc3ccccc3C(F)(F)F)c2=O)cc1 end up with in this test?
Key: Y

Exercise: Hi, sorry to bother you, what did the test record for C=Cc1nn(Cc2ccccc2C)c(=O)c(Oc2ccc(OC)cc2)c1C=C ?
Key: Y

Exercise: Hi, sorry to bother you, what did the test record for COc1ccc(Oc2c(Cl)cnn(Cc3cccc4cnccc34)c2=O)cc1 ?
Key: Y

Exercise: // outcome(item) with item = COc1ccc(Sc2c(Cl)cnn(Cc3cccc4ccccc34)c2=O)cc1
Key: N

Exercise: Outcome? COc1ccc(Oc2c(Cl)cnn(CC(=O)C(c3ccccc3)c3ccccc3)c2=O)cc1
Key: Y

Exercise: Fill in: this test's call for COc1ccc(Oc2c(Cl)cnn(C(c3ccccc3)c3ccccc3)c2=O)cc1 is ___
Key: N

Exercise: What is the recorded call for this molecule in the test? CCOc1ccc(Oc2c(Cl)cnn(Cc3cccc4ccccc34)c2=O)cc1
Key: Y

Exercise: Would you mind telling me which call this test gave COc1ccc(Oc2c(Cl)cnn(C3c4ccccc4-c4ccccc43)c2=O)cc1 ?
Key: N

Exercise: // param item: CCOc1ccc(Oc2c(S(C)=O)cnn(Cc3cccc4ccccc34)c2=O)cc1 (stereo unspecified) ; yields the recorded call
Key: N

Exercise: Which result was noted for this molecule in the test: COc1ccc(Oc2c(Cl)cnn(Cc3c4ccccc4cc4ccccc34)c2=O)cc1
Key: N

Exercise: Status in this test for CCOC(=O)C(c1cccc2ccccc12)n1ncc(Cl)c(Oc2ccc(OC)cc2)c1=O (stereo unspecified) ?
Key: N

* * *

- experimental-target: Melanin-concentrating hormone receptor 1 (Homo sapiens) (UniProt Q99705)
- assay-name: MCH receptor 1 blockade in cells – cell-based, fluorescence, dose response, set 3, selectivity assay for GPR7 antagonist project, late-stage follow-up (AID 540371)
- condition-info: MCHR1-expressing cells, run 1
observed-property: IC50

Exercise: Fill in: IC50 of COc1ccc(Oc2c(Cl)cnn(Cc3c(C)ccc4ccccc34)c2=O)cc1 is ___
Key: 770 nM

Exercise: Value lookup for IC50; key = COc1ccc(Oc2c(Cl)cnn(Cc3ccccc3C)c2=O)cc1
Key: 3060 nM

Exercise: Look up IC50 for this molecule: C=Cc1nn(Cc2ccccc2C)c(=O)c(Oc2ccc(OC)cc2)c1C=C
Key: 1430 nM

Exercise: Any idea what IC50 was measured for COc1ccc(Oc2c(Cl)cnn(Cc3cccc4cnccc34)c2=O)cc1 ?
Key: 5150 nM

Exercise: Recorded IC50 of COc1ccc(Oc2c(Cl)cnn(Cc3cccc4ccccc34)c2=O)cc1 , please.
Key: 988 nM

Exercise: // returns reported IC50 for input CCOC(=O)C(c1ccccc1)n1ncc(Cl)c(Oc2ccc(OC)cc2)c1=O (stereo unspecified)
Key: 8480 nM

* * *

- experimental-target: Melanin-concentrating hormone receptor 1 (Homo sapiens) (UniProt Q99705)
- assay-name: MCH receptor 1 blockade in cells – cell-based, fluorescence, dose response, set 3, selectivity assay for GPR7 antagonist project, late-stage follow-up (AID 540371)
- condition-info: MCHR1-expressing cells, run 1
Calls of active or inactive are those of the source. How the calls were made is not given here.
observed-property: IC50

Exercise: # query: IC50 of entry COc1ccc(Oc2c(Cl)cnn(Cc3ccc4ccccc4c3)c2=O)cc1
Key: 4010 nM

Exercise: Could you share which IC50 value was measured for COc1ccc(Oc2c(Cl)cnn(Cc3ccccc3-c3ccccc3)c2=O)cc1 ?
Key: 1120 nM

Exercise: Which IC50 reading was recorded for the compound COc1ccc(Oc2c(Cl)cnn(CC(=O)C(c3ccccc3)c3ccccc3)c2=O)cc1 ?
Key: 2920 nM

Exercise: Item under review: COc1ccc(Oc2c(Cl)cnn(C3c4ccccc4-c4ccccc43)c2=O)cc1 . Reported IC50?
Key: > 20000 nM (inactive)

* * *

Provide the reported IC50 of each item.
- experimental-target: Melanin-concentrating hormone receptor 1 (Homo sapiens) (UniProt Q99705)
- assay-name: MCH receptor 1 blockade in cells – cell-based, fluorescence, dose response, set 3, selectivity assay for GPR7 antagonist project, late-stage follow-up (AID 540371)
- condition-info: MCHR1-expressing cells, run 3
The source made the active and inactive calls. No rule for the calls is given here.

Exercise: Entry CCOC(=O)C(c1cccc2ccccc12)n1ncc(Cl)c(Oc2ccc(OC)cc2)c1=O (centres undefined) has what IC50?
Key: > 20 µM (inactive)

Exercise: For the molecule COc1ccc(Oc2c(Br)cnn(Cc3cccc4ccccc34)c2=O)cc1 , what IC50 is on record?
Key: 1.66 µM

Exercise: Which measured IC50 value corresponds to COc1ccc(Oc2c(Cl)cnn(C(C(=O)c3ccccc3)c3ccccc3)c2=O)cc1 (centres undefined) ?
Key: > 20 µM (inactive)

Exercise: Which IC50 value is on record for CCOc1ccc(Oc2c(Cl)cnn(C3c4ccccc4-c4ccccc43)c2=O)cc1 ?
Key: > 20 µM (inactive)

Exercise: For the molecule COc1ccc(Oc2c(Cl)cnn(C3c4ccccc4-c4ccccc43)c2=O)cc1 , what IC50 is on record?
Key: > 20 µM (inactive)

Exercise: // returns reported IC50 for input COc1ccc(Oc2c(Cl)cnn(Cc3ccccc3C)c2=O)cc1
Key: 5.64 µM

Exercise: // lookup IC50 for COc1ccc(Oc2c(Cl)cnn(C(c3ccccc3)c3ccccc3)c2=O)cc1
Key: 7.22 µM

Exercise: Fill in the blank: the reported IC50 of CCOC(=O)C(c1ccccc1)n1ncc(Cl)c(Oc2ccc(OC)cc2)c1=O (centres undefined) is ____.
Key: 8.11 µM

* * *

- experimental-target: Melanin-concentrating hormone receptor 1 (Homo sapiens) (UniProt Q99705)
- assay-name: MCH receptor 1 blockade in cells – cell-based, fluorescence, dose response, set 3, selectivity assay for GPR7 antagonist project, late-stage follow-up (AID 540371)
- condition-info: MCHR1-expressing cells, run 1
The source made the active and inactive calls. How the calls were made is not given here.
The reply should be one of these categories: active, inactive

Exercise: Fill in: this test's call for COc1ccc(Oc2c(Cl)cnn(Cc3ccccc3)c2=O)cc1 is ___
Key: active

Exercise: Assay result, entry CCCOc1ccc(Oc2c(Cl)cnn(C3c4ccccc4-c4ccccc43)c2=O)cc1 — outcome?
Key: inactive

Exercise: Called result for COc1ccc(Oc2c(Cl)cnn(C(C(=O)c3ccccc3)c3ccccc3)c2=O)cc1 (centres undefined)
Key: inactive

Exercise: Record lookup: outcome of this test for COc1ccc(Oc2c(Cl)cnn(Cc3c(F)cccc3F)c2=O)cc1 ?
Key: inactive

Cited source: PubChem BioAssay AID540371
